Attribute: ED50
biological target: β-receptors of the heart (Felis catus, UniProt Q9TST6); construct: Intravenously injected isoprenaline increased the heart rate and reduced the perfusion pressure; from tissue; host or cells: heart of the intact anaesthetized, reserpinized, vagotomized cat (in vivo); assay: β-blocking activity on heart rate (isoprenaline response) in reserpinized cats; type: in vivo, cat; details: reserpinized cat, intravenous; dose producing 50% blockade of isoprenaline response; read-out: β-blockade Heart rate ED50
Sequence (Q9TST6 whole entry, the tested form may be a part): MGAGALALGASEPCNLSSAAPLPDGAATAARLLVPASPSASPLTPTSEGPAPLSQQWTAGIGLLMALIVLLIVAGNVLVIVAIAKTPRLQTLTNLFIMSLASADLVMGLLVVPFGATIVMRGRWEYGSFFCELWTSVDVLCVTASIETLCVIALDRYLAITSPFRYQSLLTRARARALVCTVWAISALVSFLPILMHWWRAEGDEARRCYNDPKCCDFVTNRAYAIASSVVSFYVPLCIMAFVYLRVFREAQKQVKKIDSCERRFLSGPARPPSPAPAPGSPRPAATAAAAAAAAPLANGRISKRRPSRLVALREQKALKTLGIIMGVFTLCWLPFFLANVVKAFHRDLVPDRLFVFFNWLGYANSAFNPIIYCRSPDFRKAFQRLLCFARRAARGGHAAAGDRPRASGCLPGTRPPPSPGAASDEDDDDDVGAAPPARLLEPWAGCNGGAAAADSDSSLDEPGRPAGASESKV
Express it in mg/kg; write the number only.

>>> readout_value("COC(=O)NCCc1ccc(OCC(O)CNC(C)C)cc1 (stereo not shown) [(no label)]")
0.4

Sample CCOCc1ccc(OCC(O)CNC(C)C)cc1 (stereo not shown) ; ED50 observed: 0.4

For record CCOCCc1ccc(OCC(O)CNC(C)C)cc1 (stereo not shown) the listed ED50 is 0.3

Sure, the documented ED50 for CCOC(=O)NCCc1ccc(OCC(O)CNC(C)C)cc1 (stereo not shown) is 0.3

Reference for the values: patent US3998790A
